test: NCI Yeast Anticancer Drug Screen. Data for the sgs1 mgt1 strain (AID 161);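 also: 0% = growth of cultures given vehicle only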; details: S. cerevisiae sgs1 mgt1 strain, at 50.0 µM, stronger effect = higher value
This is part of a sample that, as a whole, favours compounds with a hit. Of some 79,000 tested, about 15% had one in any assay.
endpoint-label: growth inhibition (%)
Numbers only, in %.

Answered examples (6):
test_smiles=CCN1C(=O)CC(=O)N(CC)C1=S reported=-8.55
test_smiles=O=S(=O)(F)c1ccccc1 reported=-11.4
test_smiles=NC1C(=O)NC(=O)NC1=O reported=8.4
test_smiles=CCCC[C@H]1C(=O)O[C@H](C)[C@H](NC(=O)c2cccc(NC=O)c2O)C(=O)O[C@@H](C)[C@@H]1OC(=O)CC(C)C reported=30.9
test_smiles=Oc1ccc(Nc2ncnc3nc[nH]c23)cc1CN(CCCl)CCCl reported=3.95
test_smiles=O=C(O)CCC(=O)CCl reported=1.2

Next:
## Input # lookup: growth inhibition of `O=C1C=CC2(C=C1)CCN=c1c(O)c3c(c(O)c12)=NC=N3`
## Output 8.5

====

experiment: NCI Yeast Anticancer Drug Screen. Data for the cln2 rad14 strain (AID 165);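 also: 0% = growth equal to vehicle treated cultures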; conditions: S. cerevisiae cln2 rad14 strain, at 50.0 µM
The panel holds about 79,000 compounds, 15% with a hit somewhere; the sample as a whole holds those more often. Activity calls are given as the source filed them. Cut-off read from the data, not from the text of the source: active = growth inhibition above about 70%; inactive = the rest. *1 amine or outer side, *2 acyl side, *3 side chain or, on linkers, in order; H or OH if unused. Where a SMILES comes first, the peptide text is derived from it. Bridges are numbered along the chain shown (N, C = ends). Roman numbers before positions name the chains, in order. [ ]: non-standard residue; d: D form. Actinocin(1to9) = Cc1c2oc3c(C)ccc(C(=O)[*:2])c3nc-2c(C(=O)[*:1])c(N)c1=O; NMeV = CN[CH](C(=O)O)C(C)C; Sar = CNCC(=O)O
Select the correct class. Options are yes for active, no for inactive and nothing else.

compound=Oc1ccccc1/C=N/Sc1ccccc1.Oc1ccccc1/C=N/Sc1ccccc1.[Ni+2] assigned_label=no
compound=O=C1NC(=O)C(CCO)(c2ccccc2)C(=O)N1 assigned_label=no
compound="CC12CCC(OC3OC(CO)C(O)C(O)C3O)C=C1CCC1C2CCC2(C)C(c3ccc(=O)oc3)CCC12 (configuration not stated)" assigned_label=no
compound=O=[N+]([O-])/C=C\c1c[nH]c2ccc(OCc3ccccc3)cc12 assigned_label=no
compound="C/C=C1\\C[C@@H]2C(OC)Nc3cc(O)c(OC)cc3C(=O)N2C1 (some centres not stated)" assigned_label=no
compound="CCC(C)C1NC(=O)C(NC(=O)c2c3nc4c(C(=O)NC5C(=O)NC(C(C)C)C(=O)N6CCCC6C(=O)N(C)CC(=O)N(C)C(C(C)C)C(=O)OC5C)ccc(C)c4oc-3c(C)c(=O)c2N)C(C)OC(=O)C(C(C)C)N(C)C(=O)CN(C)C(=O)C2CCCN2C1=O (configuration not stated) (I: TIP[Sar][NMeV] / II: TVP[Sar][NMeV]; ester I:1-I:C, II:1-II:C; linker I:N-II:N via Actinocin(1to9); configuration not given here)" assigned_label=yes

## Input Test call for this compound, please: `O=c1ccc2c(O)c3ccoc3cc2o1`
## Output no

====

Test: NCI Yeast Anticancer Drug Screen. Data for the mlh1 rad18 strain (AID 175)
Settings: S. cerevisiae mlh1 rad18 strain growth inhibition; at 50.0 µM; stronger effect = higher value
Protocol: Growth inhibition of yeast strains with defined genetic alterations is measured as a screen for potential anti-cancer activity. Selected strains with alterations in DNA damage repair or cell cycle control were exposed to compounds and growth inhibition was measured relative to vehicle treated controls. The strain used in this assay is mlh1 rad18
About 79,000 compounds went through this panel and 15% of them were active in at least one assay; those are over-represented in the sample as a whole.
endpoint-label: growth inhibition (%)
One number for each entry, in %.

compound="NC(Cc1c[nH]c2cc([N+](=O)[O-])ccc12)C(=O)O (centres undefined)" endpoint_label="growth inhibition" reported=-0.25

// batch mode: one growth inhibition value per listed entry
1. O=P1(N2CCCCC2)OCC2(CO1)COP(=O)(N1CCCCC1)OC2 (centres undefined)
2. CC(C)(C)c1cc2c(=O)o[s+]3oc(=O)c(c1)c23
3. CC(=O)N(N=O)c1cc(Cl)ccc1Cl
4. CC(=O)CC(C)=O.CC(=O)CC(C)=O.CC(=O)CC(C)=O.[La]
5. COc1cc(C2c3cc4c(cc3OC(C)(O)C2C(C)=O)OCO4)cc(OC)c1OC (centres undefined)
6. C[C@@H]1C[C@@H]2c3cccc4c3c(cn4CO)C[C@H]2N(C)C1
7. O=C(c1ccccc1)C1NC1c1ccccc1 (centres undefined)

## Output
[3.2, 14.8, -1.45, 1.15, -7.45, 8.15, 10.2]

List the reported growth inhibition of each compound below.
1. CCCCCCCCCCCCCCCC[As](CCCCCCCCCCCCCCCC)SC1OC(COC(C)=O)C(OC(C)=O)C(OC(C)=O)C1OC(C)=O (centres undefined)
2. COc1ccc(N2CC=C(c3ccccc3)OP2(=O)N(CCCl)CCCl)cc1 (centres undefined)
3. c1cc2c(cc1NC1=NCCO1)OCO2
4. O=C(COc1cccc(Cl)c1Cl)Nc1ccc[n+](Cc2ccc(S(=O)(=O)F)cc2)c1
5. Cc1ccc(OP(=O)(Oc2ccc(C)cc2)Oc2ccc(C)cc2)cc1.Cc1ccc(OP(=O)(Oc2ccc(C)cc2)Oc2ccc(C)cc2)cc1.[Cl][Cr]([Cl])[Cl]

## Output
1: 3.55; 2: -3.2; 3: -25.2; 4: 28.6; 5: 4.45

// for each compound in input: emit growth inhibition
1. CCCC[S][Sn]([CH2]CCC)([CH2]CCC)[S]CCCC
2. O=C(Nc1c(O)[nH]c(=S)[nH]c1=O)c1ccccn1
3. FC(F)(F)C(OP(OC(C(F)(F)F)C(F)(F)F)OC(C(F)(F)F)C(F)(F)F)C(F)(F)F

## Output
1: 95.5; 2: -8.3; 3: 28.1

====

test: NCI Yeast Anticancer Drug Screen. Data for the sgs1 mgt1 strain (AID 161);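 also: 0% = growth of cultures given vehicle only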; details: S. cerevisiae sgs1 mgt1 strain, at 50.0 µM, stronger effect = higher value
Compounds without any hit were thinned out: in the full panel of roughly 79,000, 15% have a hit.
I'd be grateful if you could share measured growth inhibition for these entries.
One number for each entry, in %.

molecule=[CH3][Hg][O]C(C)=O unit_spec=% reported=99.7
molecule=CN(C)C1(c2ccc3ccccc3c2)CSC1 unit_spec=% reported=0.55
molecule=CS(=O)(=O)Oc1c(Cl)cc(S(=O)(=O)F)cc1Cl unit_spec=% reported=82.8
molecule=COc1cc(-c2ccc(N)c(OC)c2)ccc1N unit_spec=% reported=20.2
molecule=COC(=O)CCP(CCC(=O)OC)c1ccccc1 unit_spec=% reported=-7.15
molecule="CC(=O)C(CN1CCCCC1)C(c1ccccc1)c1c(O)c2ccccc2oc1=O (stereo not drawn)" unit_spec=% reported=9.25
molecule="NC(N)=N/N=C1\\C(=O)N(c2cccc([N+](=O)[O-])c2)C(=O)C1C(=O)Nc1cccc([N+](=O)[O-])c1 (stereo not drawn)" unit_spec=% reported=-17.1
molecule=Nc1ncn[nH]1 unit_spec=% reported=-7.75
molecule=c1cc2c(cc1NC1=NCCO1)OCO2 unit_spec=% reported=-3.65
molecule=COc1ccc(S(=O)(=O)F)cc1N unit_spec=% reported=-21.6

Quick request: growth inhibition for each listed item, please.
1. CCC(CC)CNC(=O)C(Cl)Cl
2. CCC1C(=O)NC(=O)N(c2ccccc2)C1=O (stereo not drawn)
3. Cc1cccc(CCF)c1

## Output
1. 18.6
2. -3.25
3. 1.25

====

assay: NCI Yeast Anticancer Drug Screen. Data for the cln2 rad14 strain (AID 165);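 also: 0% = growth equal to vehicle treated cultures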; conditions: S. cerevisiae cln2 rad14 strain, at 50.0 µM, stronger effect = higher value
About 79,000 compounds went through this panel and 15% of them were active in at least one assay; those are over-represented in the sample as a whole.
endpoint-label: growth inhibition (%)
Answers are plain numbers, in %.

compound=CS(=O)(=O)C(Cl)Cl reported=-2.45
compound=O=P(c1ccccc1)(c1ccccc1)c1ccccc1.O=P(c1ccccc1)(c1ccccc1)c1ccccc1.O=S(=O)(O)O.[Fe] reported=17.6
compound="CCOP1(=O)C=C(C)C(Cl)=C(C)C1 (configuration not stated)" reported=-14.3
compound=Clc1cccc2ccccc12 reported=14.1
compound=CCCCCCCCCCP(=O)(O)O reported=-30.3

List the reported growth inhibition of each compound below.
1. [N-]=[N+]=Nc1ccnc2cc(Cl)ccc12
2. CCCCC1(CCC)C(=O)NC(=O)NC1=O
3. FC(F)(F)c1ccc2c(c1)N(CCCl)c1ccccc1S2

## Output
1. -68
2. 13.7
3. -79.2

====

experiment: NCI Yeast Anticancer Drug Screen. Data for the cln2 rad14 strain (AID 165);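 also: 0% = growth equal to vehicle treated cultures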; settings: S. cerevisiae cln2 rad14 strain, at 50.0 µM, stronger effect = higher value
About 79,000 compounds went through this panel and 15% of them were active in at least one assay; those are over-represented in the sample as a whole.
Exercise: state measured growth inhibition for each of the compounds provided.
Numbers only, in %.

For orientation, consider the following solved cases.
compound="CC(C(=O)c1ccccc1)N(C)Cc1ccccc1 (configuration not stated)" endpoint_label="growth inhibition" reported=-36.7
compound="C=CCC1(O)CCC2C3CCC4=CC(=O)CCC4=C3C=CC21CC (configuration not stated)" endpoint_label="growth inhibition" reported=19.9
compound="CC1OC(=O)C2CC3CCCCC3C(/C=C/C3CCCC(C)N3C)C12 (configuration not stated)" endpoint_label="growth inhibition" reported=28.4
compound="COP1(=S)OCC2OC(n3cc(C)c(=O)[nH]c3=O)CC2O1 (configuration not stated)" endpoint_label="growth inhibition" reported=-9.1
compound=O=c1ccc(=O)[nH][nH]1.[Zn+2] endpoint_label="growth inhibition" reported=-7.2

# batch size: 6; output growth inhibition per entry
1. CCOP(=O)(O)OCC.[Y]
2. CCC1C(=O)NC(=O)N(c2ccccc2)C1=O (configuration not stated)
3. Nc1cccnc1
4. COc1ccc2c(=O)c3ccccc3oc2c1CN(CCCl)CCCl
5. N#CCO
6. O=[N+]([O-])c1cc([As](=O)(O)O)ccc1S(=O)(=O)O

## Output
1. -16.8
2. -39.4
3. -1.55
4. 13.2
5. -5.4
6. -3

## Input # get_value(readout='growth inhibition', item= `O=C(Nc1ccccc1)c1ccc([As](c2ccc(C(=O)Nc3ccccc3)cc2)c2ccc(C(=O)Nc3ccccc3)cc2)cc1` )
## Output -23.9
